biological target: T1, recombinant human CFD mutant 1 (R157A, R207A), His-tagged (human, UniProt P00746 26-253); assay: ELISA, Mut1 Binding, Bin 2
T1 construct: positions are linear positions in the mature protein; also called rhCFD-mut1-His; Mut1
T1 sequence (P00746 26-253 R182A/R232A limits assumed): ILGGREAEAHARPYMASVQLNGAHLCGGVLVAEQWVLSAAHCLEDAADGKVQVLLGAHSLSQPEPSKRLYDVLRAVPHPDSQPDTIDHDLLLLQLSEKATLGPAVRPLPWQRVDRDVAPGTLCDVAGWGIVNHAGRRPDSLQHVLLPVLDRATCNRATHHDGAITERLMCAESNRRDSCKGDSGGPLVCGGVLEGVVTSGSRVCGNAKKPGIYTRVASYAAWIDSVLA
property: binding result

- binder: "KCD003 (antibody, V domains shown, chimeric) VH: EVQLQQSRPELVKPGASVKIFCKASGYTFTDYYMNWMRQRHGETLEWIGDINPNNGDPSYNQKFKDKATLTVDKSSSTASMELRSLTSDDSAVYYCAREGPSFAYWGQGTLVTVSA VL: DVLMTQTPLSLPVSLGEQASISCRSSQTIVHSNGDTYLEWYLQKPGQSPNLLIYKVSNRFSGVPDRFSGSGSGTDFTLKISRVEAEDLGVYYCFQGSHVPPTFGGGTKLEIK"
  measurement: "no binding"
- binder: "KCD005 (antibody, V domains shown, chimeric) VH: EVQLQQSGPELVKPGASVKISCKASGYTFTDHYMNWVKQSHGKSLEWIGDINPNNGGTSCNQKFKGKATLTVDKSSSTAYMELRSLTSGDSAVYYCTREGASFAFWGQGTLVTVSA VL: DVLMTQTPLSLPVSLGDQASISCRSSQSIVHSNGDTYLEWYLQKPGQSPKLLIYKVSNRFSGVPDRFSGSGSGTDFTLKISRVEAEDLGVYYCFQGSHVPVTFGAGTKLELK"
  measurement: "no binding"
- binder: "KCD122 (antibody, V domains shown, chimeric) VH: EVQLQQSGPELVKPGASVKISCKASGYTFTDYYKNWMRQRHGESLEWIGDINPNNGDANYNQKFKGKATLTVDKSSSTAYMELRSLTSEDSAVYFCAREGPSFAYWGHGTLVTVSA VL: DVLMTQTPLSLPVSLGDQASISCRSSQTIVHSNGDTYLEWYLQKPGQSPNLLIYKVSNRFSGVPDRFSGSGSGTDFTLKISRVEAEDLGVYYCFQGSHVPPTFGGGTKLEIK"
  measurement: "no binding"
